tested on: NCI-H1355; assay: relative viability (nuclei count vs DMSO), 5 days (fraction); higher = more cells survive; conditions: first compound 2.53 µM
So basically: is relative viability under 0.7? Then true (1). Not under? Then false (0).

{"molecule": "O=c1[nH]c2ccccc2n1C1CCN(CCCC(c2ccc(F)cc2)c2ccc(F)cc2)CC1 [Pimozide] + CC(C)C[C@H](NC(=O)[C@H](Cc1ccccc1)NC(=O)c1cnccn1)B(O)O [Bortezomib] (partner 0.002 µM)", "class": "false (0)"}
{"molecule": "O=c1[nH]c2ccccc2n1C1CCN(CCCC(c2ccc(F)cc2)c2ccc(F)cc2)CC1 [Pimozide] + Nc1ncn([C@H]2C[C@H](O)[C@@H](CO)O2)c(=O)n1 [Decitabine] (partner 2 µM)", "class": "true (1)"}
{"molecule": "O=c1[nH]c2ccccc2n1C1CCN(CCCC(c2ccc(F)cc2)c2ccc(F)cc2)CC1 [Pimozide] + C[C@@H](Oc1cc(-c2cnn(C3CCNCC3)c2)cnc1N)c1c(Cl)ccc(F)c1Cl [Crizotinib] (partner 1 µM)", "class": "false (0)"}
{"molecule": "Cc1cnc(-c2cnc(NCCNc3ccc(C#N)cn3)nc2-c2ccc(Cl)cc2Cl)[nH]1 + CCNC(=O)c1noc(-c2cc(C(C)C)c(O)cc2O)c1-c1ccc(CN2CCOCC2)cc1 [Luminespib] (partner 0.01 µM)", "class": "false (0)"}
{"molecule": "Cc1cnc(-c2cnc(NCCNc3ccc(C#N)cn3)nc2-c2ccc(Cl)cc2Cl)[nH]1 + Nc1ncn([C@H]2C[C@H](O)[C@@H](CO)O2)c(=O)n1 [Decitabine] (partner 2 µM)", "class": "true (1)"}
{"molecule": "O=c1[nH]c2ccccc2n1C1CCN(CCCC(c2ccc(F)cc2)c2ccc(F)cc2)CC1 [Pimozide] + C[C@]1(O)C[C@@H](c2nc(-c3ccc4ccc(-c5ccccc5)nc4c3)c3c(N)nccn32)C1 [Linsitinib] (partner 1 µM)", "class": "false (0)"}
{"molecule": "Cc1cnc(-c2cnc(NCCNc3ccc(C#N)cn3)nc2-c2ccc(Cl)cc2Cl)[nH]1 + COc1cc2c(Oc3ccc(NC(=O)C4(C(=O)Nc5ccc(F)cc5)CC4)cc3F)ccnc2cc1OCCCN1CCOCC1 [Foretinib] (partner 0.25 µM)", "class": "false (0)"}
{"molecule": "Cc1cnc(-c2cnc(NCCNc3ccc(C#N)cn3)nc2-c2ccc(Cl)cc2Cl)[nH]1 + NC(=O)Nc1cc(-c2cccc(F)c2)sc1C(=O)N[C@H]1CCCNC1 [AZD7762] (partner 0.2 µM)", "class": "true (1)"}

---

system: PC-14; assay: relative viability (nuclei count vs DMSO), 5 days (fraction); higher = more cells survive; conditions: first compound 0.04 µM
The entries below are paired with their reported relative viability.

{"compound": "Cc1sc2c(c1C)C(c1ccc(Cl)cc1)=N[C@@H](CC(=O)OC(C)(C)C)c1nnc(C)n1-2 [JQ1] + CS(=O)(=O)CCNCc1ccc(-c2ccc3ncnc(Nc4ccc(OCc5cccc(F)c5)c(Cl)c4)c3c2)o1 [Lapatinib] (partner 2 µM)", "measured-target": "PC-14", "relative viability": 0.307}
{"compound": "Cc1sc2c(c1C)C(c1ccc(Cl)cc1)=N[C@@H](CC(=O)OC(C)(C)C)c1nnc(C)n1-2 [JQ1] + CC(=O)c1c(C)c2cnc(Nc3ccc(N4CCNCC4)cn3)nc2n(C2CCCC2)c1=O [Palbociclib] (partner 0.5 µM)", "measured-target": "PC-14", "relative viability": 0.486}
{"compound": "Cc1sc2c(c1C)C(c1ccc(Cl)cc1)=N[C@@H](CC(=O)OC(C)(C)C)c1nnc(C)n1-2 [JQ1] + N=C(N)NC(=N)NCCc1ccccc1 [Phenformin] (partner 250 µM)", "measured-target": "PC-14", "relative viability": 0.485}

---

The entries below are paired with their reported relative viability.
tested on: NCI-H2023; test: relative viability (nuclei count vs DMSO), 5 days (fraction); higher = more cells survive; details: first compound 0.4 µM
result-type: relative viability

{"compound": "Cc1sc2c(c1C)C(c1ccc(Cl)cc1)=N[C@@H](CC(=O)OC(C)(C)C)c1nnc(C)n1-2 [JQ1] + O=C(CCCCCCC(=O)Nc1ccccc1)NO [Vorinostat] (partner 1 µM)", "measured-target": "NCI-H2023", "observed-value": 0.44}
{"compound": "Cc1sc2c(c1C)C(c1ccc(Cl)cc1)=N[C@@H](CC(=O)OC(C)(C)C)c1nnc(C)n1-2 [JQ1] + Nc1nc2[nH]cc(CCc3ccc(C(=O)N[C@@H](CCC(=O)O)C(=O)O)cc3)c2c(=O)[nH]1 [Pemetrexed] (partner 0.2 µM)", "measured-target": "NCI-H2023", "observed-value": 0.139}
{"compound": "Cc1sc2c(c1C)C(c1ccc(Cl)cc1)=N[C@@H](CC(=O)OC(C)(C)C)c1nnc(C)n1-2 [JQ1] + CS(=O)(=O)CCNCc1ccc(-c2ccc3ncnc(Nc4ccc(OCc5cccc(F)c5)c(Cl)c4)c3c2)o1 [Lapatinib] (partner 2 µM)", "measured-target": "NCI-H2023", "observed-value": 0.443}
{"compound": "Cc1sc2c(c1C)C(c1ccc(Cl)cc1)=N[C@@H](CC(=O)OC(C)(C)C)c1nnc(C)n1-2 [JQ1] + Nc1ncn([C@H]2C[C@H](O)[C@@H](CO)O2)c(=O)n1 [Decitabine] (partner 2 µM)", "measured-target": "NCI-H2023", "observed-value": 0.198}
{"compound": "Cc1sc2c(c1C)C(c1ccc(Cl)cc1)=N[C@@H](CC(=O)OC(C)(C)C)c1nnc(C)n1-2 [JQ1] + O=C(c1cc(Cc2n[nH]c(=O)c3ccccc23)ccc1F)N1CCN(C(=O)C2CC2)CC1 [Olaparib] (partner 8 µM)", "measured-target": "NCI-H2023", "observed-value": 0.207}

---

system: NCI-H2170; experiment: relative viability (nuclei count vs DMSO), 5 days (fraction); higher = more cells survive; conditions: first compound 2.53 µM
The entries below are paired with their reported relative viability.

{"molecule": "Cc1cnc(-c2cnc(NCCNc3ccc(C#N)cn3)nc2-c2ccc(Cl)cc2Cl)[nH]1 + CCNC(=O)c1noc(-c2cc(C(C)C)c(O)cc2O)c1-c1ccc(CN2CCOCC2)cc1 [Luminespib] (partner 0.01 µM)", "measured-target": "NCI-H2170", "relative viability": 0.655}
{"molecule": "Cc1cnc(-c2cnc(NCCNc3ccc(C#N)cn3)nc2-c2ccc(Cl)cc2Cl)[nH]1 + NC(=O)Nc1cc(-c2cccc(F)c2)sc1C(=O)N[C@H]1CCCNC1 [AZD7762] (partner 0.2 µM)", "measured-target": "NCI-H2170", "relative viability": 0.695}
{"molecule": "O=c1[nH]c2ccccc2n1C1CCN(CCCC(c2ccc(F)cc2)c2ccc(F)cc2)CC1 [Pimozide] + O=C(CCCCCCC(=O)Nc1ccccc1)NO [Vorinostat] (partner 1 µM)", "measured-target": "NCI-H2170", "relative viability": 0.793}

---

system: EKVX; test: relative viability (nuclei count vs DMSO), 5 days (fraction); higher = more cells survive; conditions: first compound 15.81 µM
The entries below are paired with their reported relative viability.
result-type: relative viability

{"molecule": "O=C(O)CCCCC(CCSCc1ccccc1)SCc1ccccc1 (stereo not given) [CPI-613] + O=C(CCCCCCC(=O)Nc1ccccc1)NO [Vorinostat] (partner 1 µM)", "observed-value": 0.668}
{"molecule": "O=C(O)CCCCC(CCSCc1ccccc1)SCc1ccccc1 (stereo not given) [CPI-613] + COc1cc2c(Oc3ccc(NC(=O)C4(C(=O)Nc5ccc(F)cc5)CC4)cc3F)ccnc2cc1OCCCN1CCOCC1 [Foretinib] (partner 0.25 µM)", "observed-value": 0.754}
{"molecule": "O=C(O)CCCCC(CCSCc1ccccc1)SCc1ccccc1 (stereo not given) [CPI-613] + CC1(C)CCC(c2ccc(Cl)cc2)=C(CN2CCN(c3ccc(C(=O)NS(=O)(=O)c4ccc(N[C@H](CCN5CCOCC5)CSc5ccccc5)c(S(=O)(=O)C(F)(F)F)c4)cc3)CC2)C1 [Navitoclax] (partner 0.5 µM)", "observed-value": 0.875}
{"molecule": "O=C(O)CCCCC(CCSCc1ccccc1)SCc1ccccc1 (stereo not given) [CPI-613] + Cc1nc(Nc2ncc(C(=O)Nc3c(C)cccc3Cl)s2)cc(N2CCN(CCO)CC2)n1 [Dasatinib] (partner 0.075 µM)", "observed-value": 0.482}
{"molecule": "O=C(O)CCCCC(CCSCc1ccccc1)SCc1ccccc1 (stereo not given) [CPI-613] + CC(=O)c1c(C)c2cnc(Nc3ccc(N4CCNCC4)cn3)nc2n(C2CCCC2)c1=O [Palbociclib] (partner 0.5 µM)", "observed-value": 0.449}

---

test system: NCI-H1755; assay: relative viability (nuclei count vs DMSO), 5 days (fraction); higher = more cells survive; conditions: first compound 2.53 µM
The entries below are paired with their reported relative viability.
result-type: relative viability

{"compound": "Cc1cnc(-c2cnc(NCCNc3ccc(C#N)cn3)nc2-c2ccc(Cl)cc2Cl)[nH]1 + Cc1cc(Nc2cc(N3CCN(C)CC3)nc(Sc3ccc(NC(=O)C4CC4)cc3)n2)n[nH]1 [Tozasertib] (partner 0.1 µM)", "result-type": "relative viability", "observed-value": 0.539}
{"compound": "Cc1cnc(-c2cnc(NCCNc3ccc(C#N)cn3)nc2-c2ccc(Cl)cc2Cl)[nH]1 + CCNC(=O)c1noc(-c2cc(C(C)C)c(O)cc2O)c1-c1ccc(CN2CCOCC2)cc1 [Luminespib] (partner 0.01 µM)", "result-type": "relative viability", "observed-value": 0.385}
{"compound": "O=c1[nH]c2ccccc2n1C1CCN(CCCC(c2ccc(F)cc2)c2ccc(F)cc2)CC1 [Pimozide] + Nc1nc2[nH]cc(CCc3ccc(C(=O)N[C@@H](CCC(=O)O)C(=O)O)cc3)c2c(=O)[nH]1 [Pemetrexed] (partner 0.2 µM)", "result-type": "relative viability", "observed-value": 0.389}
{"compound": "O=c1[nH]c2ccccc2n1C1CCN(CCCC(c2ccc(F)cc2)c2ccc(F)cc2)CC1 [Pimozide] + CS(=O)(=O)N1CCN(Cc2cc3nc(-c4cccc5[nH]ncc45)nc(N4CCOCC4)c3s2)CC1 [Pictilisib] (partner 1 µM)", "result-type": "relative viability", "observed-value": 0.368}

Values compiled from the supplement of paper PMC10307832.
